Recorded pIC50 values for a group of compounds are listed next.
target: HER-2 (Homo sapiens, UniProt P04626); construct: His6 with thrombin site (N); test: HER-2 Kinase Assay; conditions: value in parentheses
Sequence (P04626 679-1255): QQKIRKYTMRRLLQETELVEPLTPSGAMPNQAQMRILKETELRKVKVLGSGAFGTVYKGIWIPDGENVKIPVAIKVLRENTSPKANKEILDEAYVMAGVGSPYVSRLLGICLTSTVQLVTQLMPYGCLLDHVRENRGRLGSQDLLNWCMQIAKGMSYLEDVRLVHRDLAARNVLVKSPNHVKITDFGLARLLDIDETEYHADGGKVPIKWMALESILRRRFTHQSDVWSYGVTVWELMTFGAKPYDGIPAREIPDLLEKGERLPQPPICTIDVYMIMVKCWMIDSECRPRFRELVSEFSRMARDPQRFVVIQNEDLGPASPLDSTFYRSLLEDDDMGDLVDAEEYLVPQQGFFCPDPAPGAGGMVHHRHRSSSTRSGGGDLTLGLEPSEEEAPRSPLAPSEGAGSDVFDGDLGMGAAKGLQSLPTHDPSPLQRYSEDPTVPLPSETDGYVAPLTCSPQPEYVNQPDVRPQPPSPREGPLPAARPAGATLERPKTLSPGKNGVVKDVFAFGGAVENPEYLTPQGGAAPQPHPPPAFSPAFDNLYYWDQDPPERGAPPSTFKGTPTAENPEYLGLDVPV
Value format note: pIC50 is -log10 of concentration (mol/L); just state the number.

Check out these entries, answers already filled in.
compound=O=C(NCCCO)c1sc2ncnc3c2c1NC(=O)N3c1ccc(Oc2ccccc2)cc1 measured_parameter=pIC50 observed_measurement=6.11
compound=O=C(O)c1sc2ncnc3c2c1NC(=O)N3c1ccc(Oc2ccccc2)cc1 measured_parameter=pIC50 observed_measurement=4.91
compound="O=C(Nc1ccc(CN2CCCCC2)cc1)c1sc2ncnc3c2c1NC(=O)N3c1ccc([S+]([O-])c2ccccc2)cc1 (stereo not shown)" measured_parameter=pIC50 observed_measurement=5.84
compound=COc1cc(N2C(=O)Nc3c(C(=O)Nc4ccc(CN5CCN(C)CC5)cc4)sc4ncnc2c34)ccc1Br measured_parameter=pIC50 observed_measurement=5.36
compound=O=C(Nc1ccc(CN2CCOCC2)c(F)c1)c1sc2ncnc3c2c1NC(=O)N3c1ccc(Oc2ccccc2)cc1 measured_parameter=pIC50 observed_measurement=7.22
compound=O=C(Nc1ccc(CN2CCOCC2)cc1)c1sc2ncnc3c2c1NC(=O)N3c1ccc(Cc2ccccc2)cc1 measured_parameter=pIC50 observed_measurement=6.80
compound=O=C(Nc1ccc(CN2CCC(F)(F)CC2)cc1)c1sc2ncnc3c2c1NC(=O)N3c1ccc(Oc2ccccc2)cc1 measured_parameter=pIC50 observed_measurement=6.28
compound=O=C(Nc1ccc(CN2CCCCC2)cc1)c1sc2ncnc3c2c1NC(=O)N3c1ccc2c(ccn2Cc2cccc(F)c2)c1 measured_parameter=pIC50 observed_measurement=6.82

If you can, please state the reported pIC50 value of COc1cc(NC(=O)c2sc3ncnc4c3c2NC(=O)N4c2ccc(OCc3cccs3)c(Cl)c2)ccc1CN1CCCCC1 .
7.48

If you can, please state the reported pIC50 value of O=C(Nc1ccc(CN2CCOCC2)c(OC(F)(F)F)c1)c1sc2ncnc3c2c1NC(=O)N3c1ccc(Oc2ccccc2)cc1 .
6.38

If you can, please state the reported pIC50 value of O=C1Nc2csc3ncnc(c23)N1c1ccc2c(ccn2Cc2cccc(F)c2)c1 .
5.43

If you can, please state the reported pIC50 value of O=C(Nc1ccc(CN2CCOCC2)cc1)c1sc2ncnc3c2c1NC(=O)N3c1ccc(Oc2cccc(F)c2)cc1 .
7.06

If you can, please state the reported pIC50 value of NC1CCN(Cc2ccc(NC(=O)c3sc4ncnc5c4c3NC(=O)N5c3ccc(Oc4ccccc4)cc3)cc2)CC1 .
7.96

If you can, please state the reported pIC50 value of COc1cc(NC(=O)c2sc3ncnc4c3c2NC(=O)N4c2ccc(Oc3cccc(F)c3)c(Cl)c2)ccc1OCCN1CCCCC1 .
6.16

Recorded values, source patent US7579356B2.
